# System: KM12
# procedure.text: NCI tumour cell line growth inhibition, 48 h
Activity calls are given as the source filed them. Rule as the data show it: active = GI50 up to about 1.1 µM and inactive = higher.
property.measured: GI50

Solved cases (5 shown):
compound	GI50
CN1N=C(c2ccncc2)OC1c1ccccc1F (stereo not given)	> 100 µM (inactive)
O=C1CCC[C@H]2O[C@@H](COCc3ccccc3)C[C@@H]12	> 100 µM (inactive)
Nc1nc(Cl)c(N)c(NCC2(CO)CC(CCCc3ccccc3)C2)n1 (stereo not given)	21.5 µM (inactive)
CCc1n[nH]c(=O)n1NC(=O)CCCC(=O)O	> 100 µM (inactive)
CN(C)C1(N(C)C)Oc2c(c(=O)n(C)c(=O)n2C)C(c2ccc(C(F)(F)F)cc2)C1(F)F (stereo not given)	> 100 µM (inactive)

Qu. So what GI50 did COc1cc(/C=C/C=C2\CC(C)C/C(=C\C=C\c3ccc(O)c(OC)c3)C2=O)ccc1O (stereo not given) get with KM12?
Ans. 31.7 µM (inactive)

Qu. Now the compound CC(=O)[C@]1(O)Cc2c(O)c3c(c(O)c2[C@@H](OC2CC(N)C(O)C(C)O2)C1)C(=O)c1c(OCc2ccccc2)cccc1C3=O (stereo not given in full)
Ans. 1.41 µM (inactive)

Qu. Now the compound CC(C)(C)C1=CC(=CC=C2C=CN(CCCCCCCCCCCO)C=C2)C=C(C(C)(C)C)C1=O
Ans. 1.83 µM (inactive)

Qu. Now the compound O=C(O)c1ccc(Nc2nc3ccccc3nc2C(=O)O)cc1
Ans. > 100 µM (inactive)

Qu. Now the compound COc1ccc(/C=N/n2c(Cc3ccccc3)n[nH]c2=O)c(OC)c1
Ans. > 100 µM (inactive)

###

List of GI50 values.
# System: ACHN
# procedure.text: NCI tumour cell line growth inhibition, 48 h
Activity calls are given as the source filed them. Cut-off read from the data, not from the text of the source: active = GI50 up to about 1.1 µM and inactive = higher.

Solved cases (5 shown):
compound	target.system	GI50
COc1ccc2nc3n(c2c1)C(c1c(F)cccc1F)SC3 (configuration not stated)	ACHN	34 µM (inactive)
Cc1ccc(C)c(COCCOCn2cc(N3CCOCC3)c(=O)[nH]c2=O)c1	ACHN	> 100 µM (inactive)
C[C@H]1CC[C@]2(NC1)O[C@H]1C[C@H]3[C@@H]4CC[C@H]5C[C@@H](O[C@@H]6O[C@H](CO)[C@H](O[C@@H]7O[C@H](CO)[C@@H](O)[C@H](O[C@@H]8OC[C@@H](O)[C@H](O)[C@H]8O)[C@H]7O[C@@H]7O[C@H](CO)[C@@H](O)[C@H](O)[C@H]7O)[C@H](O)[C@H]6O)CC[C@]5(C)[C@H]4CC[C@]3(C)[C@H]1[C@@H]2C [TOMATINE]	ACHN	1.71 µM (inactive)
Nc1nc(Cl)c(CO)c(NCC2(CO)CCC2)n1	ACHN	> 100 µM (inactive)
O=[N+]([O-])c1ccc(O)c(/C=N/c2nc(-c3ccccc3)cs2)c1	ACHN	31.4 µM (inactive)

Qu. Recorded GI50 of C=CCNC(=O)N(CCCCC(NC(C)=O)C(=O)NCc1ccccc1)Cc1ccccc1 (configuration not stated) , please.
Ans. > 100 µM (inactive)

Qu. Now the compound COC(=O)/C=C\C(C#N)(C#N)/N=C/c1ccc(C)cc1
Ans. 2.3 µM (inactive)

###

# Tested on: TK-10
# procedure.text: NCI tumour cell line growth inhibition, 48 h
Calls of active or inactive are those of the source. No stated cut-off is given here; in the data, active = GI50 up to about 1.1 µM and inactive = higher.
List of GI50 values.

Solved cases (5 shown):
compound	GI50
O=C1CCC[C@H]2O[C@@H](COCc3ccccc3)C[C@@H]12	> 100 µM (inactive)
O=C(NN1C(=O)CSC1c1ccco1)c1ccncc1 (stereo unspecified)	> 100 µM (inactive)
Cn1c(-c2ccccc2)c/c(=N\NS(C)(=O)=O)c2cc(S(=O)(=O)O)ccc21	> 100 µM (inactive)
CC(C)C1OC(N)=C(C#N)C1(C#N)C#N (stereo unspecified)	83.4 µM (inactive)
NCCCN1CCN(CCCNc2ccc3ncn4c5ccccc5c(=O)c2c34)CC1	4.2 µM (inactive)

From here, focus on the item given below.
Qu. Recorded GI50 of Cc1cccc2c1C(=O)C1(Cc3ccccc3C1=O)C2 (stereo unspecified) , please.
Ans. > 100 µM (inactive)
